sequences and their reported shrunken log2 fold change
- Tested on: Escherichia coli TOP10;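 further: peptides expressed intracellularly from a pBAD plasmid library in pooled LB shake-flask culture, induced with 0.3% L-arabinose, DNA abundance read by NGS, three biological replicates, DESeq2 with apeglm shrinkage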
- assay.method.text: shrunken log2 fold change of peptide-encoding DNA abundance (4.5 h post-induction vs induction); higher = less antimicrobial activity (less host growth inhibition)
- protocol.conditions: time post-induction: 4.5 h; library: site-saturation at positions 5, 18, 19, 20
test.readout: shrunken log2 fold change

{"chain": "RRIRPRPPRLPRPRPRPNWHPRP", "observed.value": -0.0472}
{"chain": "RRIRIRPPRLPRPRPRPTPGPRP", "observed.value": 0.131}
{"chain": "RRIRWRPPRLPRPRPRPCLYPRP", "observed.value": -0.0689}
{"chain": "RRIRCRPPRLPRPRPRPHFCPRP", "observed.value": -0.649}
{"chain": "RRIRHRPPRLPRPRPRPEIFPRP", "observed.value": -0.0725}
{"chain": "RRIRPRPPRLPRPRPRPKSVPRP", "observed.value": -0.119}
{"chain": "RRIRLRPPRLPRPRPRPTFHPRP", "observed.value": 0.258}
{"chain": "RRIRLRPPRLPRPRPRPEWAPRP", "observed.value": -0.0233}
{"chain": "RRIRLRPPRLPRPRPRPFGSPRP", "observed.value": -0.0744}
{"chain": "RRIRTRPPRLPRPRPRPEVYPRP", "observed.value": -0.00166}
{"chain": "RRIRVRPPRLPRPRPRPYGFPRP", "observed.value": -0.222}
{"chain": "RRIRMRPPRLPRPRPRPSLQPRP", "observed.value": 0.385}
{"chain": "RRIRSRPPRLPRPRPRPGRSPRP", "observed.value": 0.109}
{"chain": "RRIRWRPPRLPRPRPRPNLCPRP", "observed.value": 0.114}
{"chain": "RRIRHRPPRLPRPRPRPALAPRP", "observed.value": 0.24}
